Hello, the source for this data is PubChem BioAssay, in case you need it.

Test: drug combination growth inhibition, ovarian cancer – cell-based, oncology-focused library, rucaparib conditional, profiling panel (AID 1508598)
Conditions: patient-derived ovarian cancer cells, CellTiter-Glo viability, 144 h; at 0.0781 µM; OCI-P5x cells; without rucaparib; stronger effect = lower value
Entries and their viability values follow.
measured.attribute: viability (%)

compound: CC(C)C[C@H](NC(=O)CNC(=O)c1cc(Cl)ccc1Cl)B1OC(=O)CC(CC(=O)O)(C(=O)O)O1 (stereo not given in full)
experimental.result: 100
--
compound: COc1ccc(S(=O)(=O)Nc2cccnc2Nc2ccc(O)cc2)cc1
experimental.result: 111
--
compound: COc1cc2nccc(Oc3ccc(NC(=O)C4(C(=O)Nc5ccc(F)cc5)CC4)cc3)c2cc1OC
experimental.result: 101
--
compound: Cc1ccc2nc(NC(=O)CSc3nc4c(c(=O)n3-c3ccccc3)SCC4)sc2c1
experimental.result: 99.7
--
compound: O=C(Cc1ccc(-c2ccc(OCCN3CCOCC3)cc2)cn1)NCc1ccccc1
experimental.result: 23.9
--
compound: c1ccc2c(CCNc3ccc(Nc4ccncc4)cc3)c[nH]c2c1
experimental.result: 122
--
compound: C#Cc1cccc(Nc2ncnc3cc(OC)c(OCCCCCCC(=O)NO)cc23)c1
experimental.result: 108
--
compound: COc1nc(C)cnc1NS(=O)(=O)c1cccnc1-c1ccc(-c2nnco2)cc1
experimental.result: 110
--
compound: CC(C)c1ccccc1Cc1cc(C(=O)Nc2ccc(S(=O)(=O)c3ccccc3C(C)(C)C)cc2)c(O)c(O)c1O
experimental.result: 114
--
compound: NC(=O)Nc1cc(-c2cccc(F)c2)sc1C(=O)N[C@H]1CCCNC1
experimental.result: 73.5
--
compound: Cn1cc(-c2ccc3c(c2)CCN3C(=O)Cc2cccc(C(F)(F)F)c2)c2c(N)ncnc21
experimental.result: 101
--
compound: NC1(c2ccc(-c3nc4ccn5c(=O)[nH]nc5c4cc3-c3ccccc3)cc2)CCC1
experimental.result: 98.2
--
compound: Cc1cnc(NC(=O)Nc2cc(Br)c(C)cc2OC[C@@H]2CNCCO2)cn1
experimental.result: 105
--
compound: O=C(Nc1ccccc1-c1cn2c(CN3CCNCC3)csc2n1)c1cnc2ccccc2n1
experimental.result: 110
--
compound: C=CC(=O)Nc1cccc(Oc2nc(Nc3ccc(N4CCN(C)CC4)cc3OC)ncc2Cl)c1
experimental.result: 115
--
compound: COc1cc2nccc(Oc3ccc(NC(=O)NC4CC4)c(Cl)c3)c2cc1C(N)=O
experimental.result: 111
--
compound: O=C(O)CCC1CCC(c2cc(F)ccc2F)(S(=O)(=O)c2ccc(Cl)cc2)CC1 (stereo not given)
experimental.result: 93.6
--
compound: COC(=O)c1ccc2c(C(=Nc3ccc(N(C)C(=O)CN4CCN(C)CC4)cc3)c3ccccc3)c(O)[nH]c2c1
experimental.result: 96.8
--
compound: CN(C)N=Nc1nc[nH]c1C(N)=O
experimental.result: 110
--
compound: C[C@H](NC(=O)Cc1cc(F)cc(F)c1)C(=O)N[C@@H]1C(=O)N(C)c2ccccc2-c2ccccc21
experimental.result: 104

---

Experiment: compounds altering HSF1 focus formation in cells – imaging, Selleck Cancer Library (AID 1347162)
Conditions: human cells, HSF1 nuclear foci imaging, at 10 µM; measured here: cell number
measured.attribute: cell count

compound: Cc1ccc(C(=O)N(CCCN)[C@@H](c2oc3cc(Cl)ccc3c(=O)c2Cc2ccccc2)C(C)C)cc1
experimental.result: 6430
--
compound: O=C(Nc1cccnc1)N1CCC(Cc2cccc(Oc3ccc(C(F)(F)F)cn3)c2)CC1
experimental.result: 7690
--
compound: Nc1cc(C(F)(F)F)c(-c2cc(N3CCOCC3)nc(N3CCOCC3)n2)cn1
experimental.result: 7440
--
compound: O=C(Nc1ccccc1-c1cn2c(CN3CCNCC3)csc2n1)c1cnc2ccccc2n1
experimental.result: 6160
--
compound: CN(C)C/C=C/C(=O)Nc1cc2c(Nc3ccc(F)c(Cl)c3)ncnc2cc1O[C@H]1CCOC1
experimental.result: 6000
--
compound: CN1CCN(c2ccc3nc(-c4c(N)c5c(F)cccc5[nH]c4=O)[nH]c3c2)CC1
experimental.result: 5510
--
compound: Fc1cc(-c2cccc3ncc(-c4cnn(C5CCNCC5)c4)nc23)cc(F)c1CN1CCOCC1
experimental.result: 6160
--
compound: CCc1cc(Nc2nccc(-c3c(-c4ccc(OC)c(C(=O)Nc5c(F)cccc5F)c4)nc4ccccn34)n2)c(OC)cc1N1CCC(N2CCN(S(C)(=O)=O)CC2)CC1
experimental.result: 6760
--
compound: CCNC(=O)c1noc(-c2cc(C(C)C)c(O)cc2O)c1-c1ccc(CN2CCOCC2)cc1
experimental.result: 7410
--
compound: COc1ccc(COc2cc3oc(=O)c4cc(C(C)O)ccc4c3cc2OC)cc1 (centres undefined)
experimental.result: 7240
--
compound: Nc1ccc2ncnc(NCCc3ccc(Oc4ccccc4)cc3)c2c1
experimental.result: 2600
--
compound: c1ccc(-c2nn3c(c2-c2ccnc4cc(OCCN5CCOCC5)ccc24)CCC3)nc1
experimental.result: 6520
--
compound: CCOc1cc2ncc(C#N)c(Nc3ccc(F)c(Cl)c3)c2cc1NC(=O)/C=C/CN(C)C
experimental.result: 7120
--
compound: CC(C)Oc1cc(Nc2nc(N[C@@H](C)c3ccc(F)cn3)ncc2Cl)[nH]n1
experimental.result: 6860
--
compound: OCCn1cc(-c2cnc3nnn(Cc4ccc5ncccc5c4)c3n2)cn1
experimental.result: 7630
--
compound: Cn1cnc2c(F)c(Nc3ccc(Br)cc3Cl)c(C(=O)NOCCO)cc21
experimental.result: 7320
--
compound: CCOc1cc(/C=C2/C(=O)N(c3ccccc3)N=C2C)cc(Cl)c1OCC(=O)OC
experimental.result: 6670
--
compound: O=C(Cc1ccc(-c2ccc(OCCN3CCOCC3)cc2)cn1)NCc1ccccc1
experimental.result: 6240
--
compound: Cc1nn(-c2ccccc2)c(C)c1/C=N/N1CCN(Cc2ccccc2)CC1
experimental.result: 6930

---

Experiment: growth inhibition, MDA-MB-436, cell-based, BGB or cisplatin combos, synergistic combos for chromothripsis tumors (AID 1671458);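 further: cells exposed for 96 hours; 0% = vehicle DMSO and 100% = killing by high DMSO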
Conditions: MDA-MB-436 breast carcinoma growth inhibition, drug combinations; measured here: BGB combination; at 0.5 µM; stronger effect = higher value
Would you please tag the item t when its inhibition is -20% or above, and f when it is below?

compound: O=c1[nH]cnc2ccccc12
label: t

compound: Cc1cn([C@@H]2O[C@H](CO)[C@@H](O)[C@@H]2F)c(=O)[nH]c1=O
label: f

compound: O=c1[nH]c([C@@H]2CCCN2)nc2c1oc1ccc(Cl)cc12
label: f

compound: O=c1cc(N2CCOCC2)oc2c1ccc1ccccc12
label: t

compound: Nc1ccc(-c2ccc3ncc4ccc(=O)n(-c5cccc(C(F)(F)F)c5)c4c3c2)cn1
label: t

compound: O=C(CCCCCCNC(=O)c1cnc(N(c2ccccc2)c2ccccc2Cl)nc1)NO
label: t

compound: CN(C)C/C=C/C(=O)Nc1ccc(C(=O)Nc2cccc(Nc3ncc(Cl)c(-c4c[nH]c5ccccc45)n3)c2)cc1
label: t

compound: COc1ccc(C(=O)CC2(O)C(=O)Nc3c(Cl)ccc(Cl)c32)cc1 (stereo unspecified)
label: t

compound: NC(=O)c1nc(F)c[nH]c1=O
label: t

compound: c1cc(Nc2cc(C3CC3)[nH]n2)nc(Nc2ccc3nc[nH]c3c2)n1
label: t

compound: Nc1ccccc1NC(=O)c1ccc(CNc2nccc(-c3cccnc3)n2)cc1
label: t

---

Assay: viability loss with induced miR-34 in A549 – imaging, A549 dox-inducible miR-34, nuclei and caspase counts, primary screen (AID 1347080)
Conditions: A549 miR-34 inducible, Hoechst nuclei count, 48 h; measured here: total cells with miR-34 induction; stronger effect = lower value
Could you mark each record true (1) if its cell count falls strictly under 7000, and false (0) if it equals or exceeds it?

compound: CCN(CC)c1ccc(/C=N/NC(=O)c2ccc(O)cc2)cc1
label: true (1)

compound: O=C(O)CCC/C=C\C[C@H]1C(=O)C[C@@H](O)[C@@H]1/C=C/[C@@H](O)Cc1ccccc1
label: true (1)

compound: CCCCC[C@H](O)CC[C@@H]1[C@@H](C/C=C\CCCC(=O)O)[C@@H](O)C[C@H]1O
label: true (1)

compound: C=CC(=O)Nc1cccc(Oc2nc(Nc3ccc(N4CCN(C)CC4)cc3OC)ncc2Cl)c1
label: true (1)

compound: N[C@@H](CC(=O)Nc1ccc(Oc2cc(F)c(F)cc2Br)cc1)C(=O)O
label: false (0)

compound: O=C(Nc1cn[nH]c1-c1nc2ccc(CN3CCOCC3)cc2[nH]1)NC1CC1
label: true (1)

compound: COC(=O)CCCCCC[C@@H]1[C@@H](CCC(O)C#Cc2ccccc2F)[C@H](O)C[C@@H]1O (stereo partly specified)
label: true (1)

compound: OC1C[C@@H]2[C@@H](CC[C@@H](O)CCc3ccccc3)[C@H](O)C[C@@H]2O1 (stereo partly specified)
label: true (1)

compound: Cc1ccc(S(=O)(=O)Cc2nc(-c3ccc(C(=O)NCc4cccnc4)cc3)oc2C)cc1
label: true (1)

compound: O=C(CCCC[C@@H]1SC[C@@H]2NC(=O)N[C@@H]21)NCCCC[C@H](NC(=O)CCN1C(=O)C=CC1=O)C(=O)O
label: true (1)

compound: O=c1nc2ccccc2c2n1CC(CN1CCN(c3ccccc3)CC1)N2 (stereo unspecified)
label: false (0)

compound: CCc1cc(Nc2nccc(-c3c(-c4ccc(OC)c(C(=O)Nc5c(F)cccc5F)c4)nc4ccccn34)n2)c(OC)cc1N1CCC(N2CCN(S(C)(=O)=O)CC2)CC1
label: true (1)

compound: O=C(O)c1ccc(Nc2ncc3c(n2)-c2ccc(Cl)cc2C(c2c(F)cccc2F)=NC3)cc1
label: true (1)

compound: CCCCC(C)(C)[C@H](O)/C=C/[C@H]1C=CC(=O)[C@@H]1CCCCCCC(=O)O
label: true (1)

compound: CCCCCC(=O)/C=C/[C@@H]1[C@@H](CCCCCCC(=O)O)[C@@H](O)C[C@H]1O
label: true (1)

compound: Cc1ccccc1N=C(N)Nc1ccccc1C
label: false (0)

compound: NC(C(=O)O)c1nn[nH]n1 (stereo unspecified)
label: false (0)

compound: Cc1ccc(S(=O)(=O)NCc2ccccc2)cc1
label: false (0)

compound: C[C@H](N)C(=O)CCCCCC(=O)O
label: true (1)
